TESTED TARGET: Nischarin (Rattus norvegicus, UniProt Q4G017)
Sequence (Q4G017 whole entry): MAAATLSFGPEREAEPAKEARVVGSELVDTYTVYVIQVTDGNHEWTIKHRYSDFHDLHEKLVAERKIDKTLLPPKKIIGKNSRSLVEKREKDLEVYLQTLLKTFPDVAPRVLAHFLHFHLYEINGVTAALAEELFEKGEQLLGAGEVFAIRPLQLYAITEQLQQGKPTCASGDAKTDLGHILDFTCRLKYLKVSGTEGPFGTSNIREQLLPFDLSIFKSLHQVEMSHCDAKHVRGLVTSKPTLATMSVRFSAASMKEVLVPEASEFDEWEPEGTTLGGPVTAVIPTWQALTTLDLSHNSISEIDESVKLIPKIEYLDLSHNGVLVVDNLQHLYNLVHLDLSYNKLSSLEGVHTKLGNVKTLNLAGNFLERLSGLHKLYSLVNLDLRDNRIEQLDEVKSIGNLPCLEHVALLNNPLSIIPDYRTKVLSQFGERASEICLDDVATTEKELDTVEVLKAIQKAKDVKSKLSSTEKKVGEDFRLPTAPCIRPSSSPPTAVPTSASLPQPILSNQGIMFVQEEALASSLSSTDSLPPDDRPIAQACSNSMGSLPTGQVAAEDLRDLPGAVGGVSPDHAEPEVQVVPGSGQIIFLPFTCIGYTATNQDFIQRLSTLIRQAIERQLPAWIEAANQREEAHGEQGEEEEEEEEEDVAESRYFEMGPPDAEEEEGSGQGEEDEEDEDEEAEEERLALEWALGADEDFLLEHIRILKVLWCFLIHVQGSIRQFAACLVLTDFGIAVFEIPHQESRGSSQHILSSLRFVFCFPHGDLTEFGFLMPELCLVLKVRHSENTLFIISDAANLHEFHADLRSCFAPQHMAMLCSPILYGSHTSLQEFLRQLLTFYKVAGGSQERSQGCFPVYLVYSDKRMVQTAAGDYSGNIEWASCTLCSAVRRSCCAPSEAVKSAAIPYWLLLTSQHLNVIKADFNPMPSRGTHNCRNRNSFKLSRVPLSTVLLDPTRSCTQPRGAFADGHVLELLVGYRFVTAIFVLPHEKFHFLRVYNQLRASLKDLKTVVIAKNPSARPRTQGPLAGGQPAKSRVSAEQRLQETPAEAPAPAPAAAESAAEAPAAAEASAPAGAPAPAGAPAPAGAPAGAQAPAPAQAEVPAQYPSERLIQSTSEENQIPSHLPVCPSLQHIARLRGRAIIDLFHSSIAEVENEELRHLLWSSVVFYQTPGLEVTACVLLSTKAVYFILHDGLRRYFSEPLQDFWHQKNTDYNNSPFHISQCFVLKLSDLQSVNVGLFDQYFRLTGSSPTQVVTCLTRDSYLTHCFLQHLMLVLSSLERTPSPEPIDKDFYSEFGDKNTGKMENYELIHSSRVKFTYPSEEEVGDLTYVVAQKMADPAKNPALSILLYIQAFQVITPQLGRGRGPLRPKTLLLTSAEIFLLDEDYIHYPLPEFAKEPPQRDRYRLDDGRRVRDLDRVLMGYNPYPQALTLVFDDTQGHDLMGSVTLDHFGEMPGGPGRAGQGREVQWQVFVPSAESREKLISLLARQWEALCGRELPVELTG
TEST: Displacement of [3H]clonidine from imidazoline I1 receptor in Sprague-Dawley rat kidney membranes after 45 mins by scintillation counting
pIC50: −log10 of the molar value.
In this section we review reported pIC50 values for a set of compounds.
EXPERIMENTAL READOUT: pIC50

- MOL: "Cl.Clc1cccc2c1cnn2CC1=NCCN1"
  RECORDED MEASUREMENT: 5.29
- MOL: "Cl.c1ccc2c(c1)cnn2CC1=NCCN1"
  RECORDED MEASUREMENT: 4.71
- MOL: "Cc1cccc2c1ncn2CC1=NCCN1.Cl.Cl"
  RECORDED MEASUREMENT: 4.11
- MOL: "Cc1nc2ccccc2n1CC1=NCCN1.Cl.Cl"
  RECORDED MEASUREMENT: 5.03
- MOL: "Cl.c1ccc2c(c1)nnn2CC1=NCCN1"
  RECORDED MEASUREMENT: 4.25
- MOL: "COc1cccc2c1cnn2CC1=NCCN1.Cl.Cl"
  RECORDED MEASUREMENT: 4.48
- MOL: "Cc1cc2ncn(CC3=NCCN3)c2cc1C.Cl.Cl"
  RECORDED MEASUREMENT: 4.13
- MOL: "Cl.Clc1cccc2cnn(CC3=NCCN3)c12"
  RECORDED MEASUREMENT: 6.07
- MOL: "Cl.Cl.c1ccc(Cc2nc3ccccc3n2CC2=NCCN2)cc1"
  RECORDED MEASUREMENT: 4.68
- MOL: "Cc1cccc2nn(CC3=NCCN3)nc12.Cl.Cl"
  RECORDED MEASUREMENT: 4.31
- MOL: "Cc1cccc2c1cnn2CC1=NCCN1.Cl"
  RECORDED MEASUREMENT: 4.89
- MOL: "Cl.Fc1cccc2cnn(CC3=NCCN3)c12"
  RECORDED MEASUREMENT: 4.79
- MOL: "Cl.Cl.c1ccc(-c2nc3ccccc3n2CC2=NCCN2)cc1"
  RECORDED MEASUREMENT: 4.55
- MOL: "Cl.Cl.c1ccc2c(c1)ncn2CC1=NCCN1"
  RECORDED MEASUREMENT: 4.36
- MOL: "CCc1nc2ccccc2n1CC1=NCCN1.Cl.Cl"
  RECORDED MEASUREMENT: 4.35
- MOL: "Cc1cccc2cnn(CC3=NCCN3)c12.Cl"
  RECORDED MEASUREMENT: 4.02
- MOL: "Cc1ccc2c(cnn2CC2=NCCN2)c1.Cl.Cl"
  RECORDED MEASUREMENT: 4.34
- MOL: "Cc1cc2nnn(CC3=NCCN3)c2cc1C.Cl.Cl"
  RECORDED MEASUREMENT: 4.77
- MOL: "Cc1nn(CC2=NCCN2)c2ccccc12.Cl.Cl"
  RECORDED MEASUREMENT: 4.67
- MOL: "Cc1cc2nn(CC3=NCCN3)nc2cc1C.Cl.Cl"
  RECORDED MEASUREMENT: 6.19
- MOL: "CCc1nc2cc(C)c(C)cc2n1CC1=NCCN1.Cl.Cl"
  RECORDED MEASUREMENT: 4.03

----------
TESTED TARGET: Adrenergic receptor alpha-2 (Rattus norvegicus, UniProt P22086+P19328+P22909)
TEST: Displacement of […] from adrenoceptor alpha2 in Sprague-Dawley rat brain membranes after 45 mins by scintillation counting
Format: cell membranes, Membrane
EXPERIMENTAL READOUT: Ki

- MOL: "Cl.Clc1cccc2c1cnn2CC1=NCCN1"
  TESTED TARGET: "Adrenergic receptor alpha-2 (Rattus norvegicus, UniProt P22086+P19328+P22909)"
  RECORDED MEASUREMENT: "130 nM"
- MOL: "Cc1cc2nnn(CC3=NCCN3)c2cc1C.Cl.Cl"
  TESTED TARGET: "Adrenergic receptor alpha-2 (Rattus norvegicus, UniProt P22086+P19328+P22909)"
  RECORDED MEASUREMENT: "1560 nM"
- MOL: "CCc1nc2cc(C)c(C)cc2n1CC1=NCCN1.Cl.Cl"
  TESTED TARGET: "Adrenergic receptor alpha-2 (Rattus norvegicus, UniProt P22086+P19328+P22909)"
  RECORDED MEASUREMENT: "7410 nM"
- MOL: "Cc1cccc2cnn(CC3=NCCN3)c12.Cl"
  TESTED TARGET: "Adrenergic receptor alpha-2 (Rattus norvegicus, UniProt P22086+P19328+P22909)"
  RECORDED MEASUREMENT: "607 nM"
- MOL: "Cl.c1ccc2c(c1)cnn2CC1=NCCN1"
  TESTED TARGET: "Adrenergic receptor alpha-2 (Rattus norvegicus, UniProt P22086+P19328+P22909)"
  RECORDED MEASUREMENT: "18.5 nM"
- MOL: "Cl.c1ccc2c(c1)nnn2CC1=NCCN1"
  TESTED TARGET: "Adrenergic receptor alpha-2 (Rattus norvegicus, UniProt P22086+P19328+P22909)"
  RECORDED MEASUREMENT: "5110 nM"
- MOL: "Cl.Cl.c1ccc2c(c1)ncn2CC1=NCCN1"
  TESTED TARGET: "Adrenergic receptor alpha-2 (Rattus norvegicus, UniProt P22086+P19328+P22909)"
  RECORDED MEASUREMENT: "3250 nM"
- MOL: "Cc1cc2nn(CC3=NCCN3)nc2cc1C.Cl.Cl"
  TESTED TARGET: "Adrenergic receptor alpha-2 (Rattus norvegicus, UniProt P22086+P19328+P22909)"
  RECORDED MEASUREMENT: "1320 nM"
- MOL: "Cc1cccc2c1ncn2CC1=NCCN1.Cl.Cl"
  TESTED TARGET: "Adrenergic receptor alpha-2 (Rattus norvegicus, UniProt P22086+P19328+P22909)"
  RECORDED MEASUREMENT: "273 nM"
- MOL: "CCc1nc2ccccc2n1CC1=NCCN1.Cl.Cl"
  TESTED TARGET: "Adrenergic receptor alpha-2 (Rattus norvegicus, UniProt P22086+P19328+P22909)"
  RECORDED MEASUREMENT: "5000 nM"
- MOL: "Cl.Cl.c1ccc(-c2nc3ccccc3n2CC2=NCCN2)cc1"
  TESTED TARGET: "Adrenergic receptor alpha-2 (Rattus norvegicus, UniProt P22086+P19328+P22909)"
  RECORDED MEASUREMENT: "7440 nM"
- MOL: "Cl.Fc1cccc2cnn(CC3=NCCN3)c12"
  TESTED TARGET: "Adrenergic receptor alpha-2 (Rattus norvegicus, UniProt P22086+P19328+P22909)"
  RECORDED MEASUREMENT: "12.6 nM"
- MOL: "Cc1cccc2nn(CC3=NCCN3)nc12.Cl.Cl"
  TESTED TARGET: "Adrenergic receptor alpha-2 (Rattus norvegicus, UniProt P22086+P19328+P22909)"
  RECORDED MEASUREMENT: "499 nM"
- MOL: "COc1cccc2c1cnn2CC1=NCCN1.Cl.Cl"
  TESTED TARGET: "Adrenergic receptor alpha-2 (Rattus norvegicus, UniProt P22086+P19328+P22909)"
  RECORDED MEASUREMENT: "305 nM"
- MOL: "Cc1ccc2c(cnn2CC2=NCCN2)c1.Cl.Cl"
  TESTED TARGET: "Adrenergic receptor alpha-2 (Rattus norvegicus, UniProt P22086+P19328+P22909)"
  RECORDED MEASUREMENT: "268 nM"
- MOL: "Cl.Clc1cccc2cnn(CC3=NCCN3)c12"
  TESTED TARGET: "Adrenergic receptor alpha-2 (Rattus norvegicus, UniProt P22086+P19328+P22909)"
  RECORDED MEASUREMENT: "6.4 nM"
- MOL: "Cl.Cl.c1ccc(Cc2nc3ccccc3n2CC2=NCCN2)cc1"
  TESTED TARGET: "Adrenergic receptor alpha-2 (Rattus norvegicus, UniProt P22086+P19328+P22909)"
  RECORDED MEASUREMENT: "11200 nM"
- MOL: "Cc1nc2ccccc2n1CC1=NCCN1.Cl.Cl"
  TESTED TARGET: "Adrenergic receptor alpha-2 (Rattus norvegicus, UniProt P22086+P19328+P22909)"
  RECORDED MEASUREMENT: "1020 nM"
- MOL: "Cc1cccc2c1cnn2CC1=NCCN1.Cl"
  TESTED TARGET: "Adrenergic receptor alpha-2 (Rattus norvegicus, UniProt P22086+P19328+P22909)"
  RECORDED MEASUREMENT: "197 nM"
- MOL: "Cc1nn(CC2=NCCN2)c2ccccc12.Cl.Cl"
  TESTED TARGET: "Adrenergic receptor alpha-2 (Rattus norvegicus, UniProt P22086+P19328+P22909)"
  RECORDED MEASUREMENT: "435 nM"
- MOL: "Cc1cc2ncn(CC3=NCCN3)c2cc1C.Cl.Cl"
  TESTED TARGET: "Adrenergic receptor alpha-2 (Rattus norvegicus, UniProt P22086+P19328+P22909)"
  RECORDED MEASUREMENT: "2260 nM"
